# Tested on: PPARg:RXRa 90nM:30nM, anti-RXR (NR concentration 90 nM, RXRa partner concentration 30 nM)
# assay info: PBM binding z-score (relative to random genomic background probes); higher = stronger binding; sequences stand for … in GC…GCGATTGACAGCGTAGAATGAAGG
Please use T whenever PBM binding z-score is not below 1, and F whenever it is.

record sequence	class
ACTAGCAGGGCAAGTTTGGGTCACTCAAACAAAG	F
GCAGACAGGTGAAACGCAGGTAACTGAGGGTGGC	F
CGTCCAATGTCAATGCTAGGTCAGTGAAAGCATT	F
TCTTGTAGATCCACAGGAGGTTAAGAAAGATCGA	T
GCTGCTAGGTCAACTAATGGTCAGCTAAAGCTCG	T
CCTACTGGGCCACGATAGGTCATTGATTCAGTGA	T
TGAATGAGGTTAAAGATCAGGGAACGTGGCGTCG	T
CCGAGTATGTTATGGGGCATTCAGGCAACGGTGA	T
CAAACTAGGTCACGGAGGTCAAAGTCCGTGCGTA	T
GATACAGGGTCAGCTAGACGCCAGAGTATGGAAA	T
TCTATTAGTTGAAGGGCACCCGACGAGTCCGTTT	T

====

# System: RXRa homodimer (NR concentration 180 nM)
# assay info: PBM binding z-score (relative to random genomic background probes); higher = stronger binding; sequences stand for … in GC…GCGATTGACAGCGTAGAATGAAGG
Consider the following partition of reported PBM binding z-score into named classes: A = under 0.5, B = from 0.5 up to 3, C = 3 and over

record sequence	class
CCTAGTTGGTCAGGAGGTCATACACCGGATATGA	C
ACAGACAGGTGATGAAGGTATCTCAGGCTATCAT	A
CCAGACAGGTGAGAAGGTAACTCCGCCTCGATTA	A
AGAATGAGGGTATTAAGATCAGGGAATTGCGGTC	A
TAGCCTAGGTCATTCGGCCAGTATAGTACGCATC	B
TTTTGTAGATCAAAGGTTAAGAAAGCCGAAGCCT	C
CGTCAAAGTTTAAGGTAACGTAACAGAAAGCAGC	A
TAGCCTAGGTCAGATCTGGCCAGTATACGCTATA	B
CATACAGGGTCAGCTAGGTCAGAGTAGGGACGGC	C
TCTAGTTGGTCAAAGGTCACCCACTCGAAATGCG	C
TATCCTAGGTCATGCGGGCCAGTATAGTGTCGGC	C
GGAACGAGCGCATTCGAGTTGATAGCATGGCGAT	A
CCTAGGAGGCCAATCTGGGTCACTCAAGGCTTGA	B
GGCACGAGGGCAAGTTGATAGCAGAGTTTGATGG	B

====

# System: PPARg:RXRa DBDmut IVT, anti-RXR (DBD mutation: RXRa K156A/R161A, NR concentration 270 nM, RXRa partner concentration 90 nM)
# assay info: PBM binding z-score (relative to random genomic background probes); higher = stronger binding; sequences stand for … in GC…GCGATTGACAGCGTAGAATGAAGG
Consider the following partition of reported PBM binding z-score into named classes: bottom end: < 1; midrange: ≥ 1 and < 3; top end: ≥ 3

record sequence	class
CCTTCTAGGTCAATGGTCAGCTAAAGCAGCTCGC	top end
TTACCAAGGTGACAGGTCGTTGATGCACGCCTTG	midrange
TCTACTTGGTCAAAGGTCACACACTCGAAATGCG	top end
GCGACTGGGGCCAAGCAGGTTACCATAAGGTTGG	bottom end
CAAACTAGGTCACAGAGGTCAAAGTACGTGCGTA	top end
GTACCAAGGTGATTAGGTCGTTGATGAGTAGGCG	midrange
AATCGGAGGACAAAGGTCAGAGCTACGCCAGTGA	bottom end
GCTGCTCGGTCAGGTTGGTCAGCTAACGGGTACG	bottom end
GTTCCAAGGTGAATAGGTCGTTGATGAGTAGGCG	midrange
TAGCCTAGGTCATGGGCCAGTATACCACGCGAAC	midrange
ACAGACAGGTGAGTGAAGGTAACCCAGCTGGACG	bottom end
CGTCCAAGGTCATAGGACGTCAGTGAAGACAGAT	midrange
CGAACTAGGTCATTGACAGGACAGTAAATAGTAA	top end
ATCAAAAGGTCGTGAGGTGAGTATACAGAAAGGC	bottom end
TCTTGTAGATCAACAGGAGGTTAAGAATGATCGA	midrange
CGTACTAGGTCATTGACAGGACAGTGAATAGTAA	top end
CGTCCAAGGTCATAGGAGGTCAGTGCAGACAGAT	top end
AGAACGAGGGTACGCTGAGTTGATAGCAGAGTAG	midrange
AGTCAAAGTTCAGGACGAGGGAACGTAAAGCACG	bottom end
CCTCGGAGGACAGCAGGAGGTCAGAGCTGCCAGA	bottom end
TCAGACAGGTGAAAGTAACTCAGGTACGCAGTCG	midrange
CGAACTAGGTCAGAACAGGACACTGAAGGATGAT	top end
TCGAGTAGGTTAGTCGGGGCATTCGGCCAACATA	midrange
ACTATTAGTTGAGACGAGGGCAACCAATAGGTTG	bottom end
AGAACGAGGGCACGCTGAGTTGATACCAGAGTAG	top end
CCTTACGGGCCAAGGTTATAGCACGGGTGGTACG	bottom end
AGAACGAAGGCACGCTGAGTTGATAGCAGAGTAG	bottom end
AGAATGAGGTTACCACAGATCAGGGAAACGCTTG	top end
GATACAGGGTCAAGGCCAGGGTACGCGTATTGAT	midrange
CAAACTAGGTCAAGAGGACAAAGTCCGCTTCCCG	top end
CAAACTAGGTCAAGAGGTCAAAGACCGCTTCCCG	top end
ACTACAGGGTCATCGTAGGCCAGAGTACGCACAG	midrange
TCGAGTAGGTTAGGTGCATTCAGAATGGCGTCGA	midrange
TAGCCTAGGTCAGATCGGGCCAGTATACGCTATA	bottom end
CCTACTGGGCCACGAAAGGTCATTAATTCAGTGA	top end
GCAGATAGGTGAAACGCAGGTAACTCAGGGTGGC	top end
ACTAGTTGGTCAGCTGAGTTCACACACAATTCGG	midrange
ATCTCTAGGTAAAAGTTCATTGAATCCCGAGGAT	midrange
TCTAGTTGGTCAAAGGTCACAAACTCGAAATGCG	top end
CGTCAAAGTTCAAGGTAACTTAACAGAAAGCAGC	bottom end
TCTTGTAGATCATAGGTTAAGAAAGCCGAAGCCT	midrange
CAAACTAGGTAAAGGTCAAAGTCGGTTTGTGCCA	top end
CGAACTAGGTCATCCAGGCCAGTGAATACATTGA	top end
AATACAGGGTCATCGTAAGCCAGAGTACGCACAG	midrange
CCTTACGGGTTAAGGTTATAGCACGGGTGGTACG	bottom end
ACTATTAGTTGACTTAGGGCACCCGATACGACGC	bottom end
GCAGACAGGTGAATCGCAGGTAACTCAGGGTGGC	bottom end
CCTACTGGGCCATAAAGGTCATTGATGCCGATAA	top end
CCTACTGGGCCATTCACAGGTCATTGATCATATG	top end
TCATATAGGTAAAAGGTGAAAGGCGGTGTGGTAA	top end

====

Overview of reported PBM binding z-score across a group of sequences:
# Tested on: PPARa:RXRa (NR concentration 270 nM, RXRa partner concentration 90 nM)
# assay info: PBM binding z-score (relative to random genomic background probes); higher = stronger binding; sequences stand for … in GC…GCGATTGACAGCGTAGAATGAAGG

record sequence	tested system	PBM binding z-score
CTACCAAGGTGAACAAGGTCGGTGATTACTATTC	PPARa:RXRa (NR concentration 270 nM, RXRa partner concentration 90 nM)	1.69
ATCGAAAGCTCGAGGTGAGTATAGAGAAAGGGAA	PPARa:RXRa (NR concentration 270 nM, RXRa partner concentration 90 nM)	-0.028
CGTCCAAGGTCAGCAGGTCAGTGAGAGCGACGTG	PPARa:RXRa (NR concentration 270 nM, RXRa partner concentration 90 nM)	4.74
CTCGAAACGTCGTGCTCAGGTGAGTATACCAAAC	PPARa:RXRa (NR concentration 270 nM, RXRa partner concentration 90 nM)	-0.553
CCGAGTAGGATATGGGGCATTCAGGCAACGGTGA	PPARa:RXRa (NR concentration 270 nM, RXRa partner concentration 90 nM)	1.11
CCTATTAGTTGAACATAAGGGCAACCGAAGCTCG	PPARa:RXRa (NR concentration 270 nM, RXRa partner concentration 90 nM)	0.594
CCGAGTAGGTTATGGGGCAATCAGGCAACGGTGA	PPARa:RXRa (NR concentration 270 nM, RXRa partner concentration 90 nM)	2.37
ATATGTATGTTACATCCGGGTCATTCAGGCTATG	PPARa:RXRa (NR concentration 270 nM, RXRa partner concentration 90 nM)	2.94
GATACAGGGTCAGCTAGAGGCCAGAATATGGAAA	PPARa:RXRa (NR concentration 270 nM, RXRa partner concentration 90 nM)	4.48
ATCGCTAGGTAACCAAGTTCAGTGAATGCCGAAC	PPARa:RXRa (NR concentration 270 nM, RXRa partner concentration 90 nM)	0.318
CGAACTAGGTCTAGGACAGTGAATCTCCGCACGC	PPARa:RXRa (NR concentration 270 nM, RXRa partner concentration 90 nM)	-0.176
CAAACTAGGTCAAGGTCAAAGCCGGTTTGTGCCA	PPARa:RXRa (NR concentration 270 nM, RXRa partner concentration 90 nM)	6.15
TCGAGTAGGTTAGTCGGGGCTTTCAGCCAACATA	PPARa:RXRa (NR concentration 270 nM, RXRa partner concentration 90 nM)	0.158
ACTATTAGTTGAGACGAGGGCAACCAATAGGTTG	PPARa:RXRa (NR concentration 270 nM, RXRa partner concentration 90 nM)	0.282
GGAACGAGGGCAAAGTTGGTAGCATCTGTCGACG	PPARa:RXRa (NR concentration 270 nM, RXRa partner concentration 90 nM)	3.14
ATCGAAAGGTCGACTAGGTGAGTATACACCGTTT	PPARa:RXRa (NR concentration 270 nM, RXRa partner concentration 90 nM)	4.24
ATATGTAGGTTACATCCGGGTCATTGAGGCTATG	PPARa:RXRa (NR concentration 270 nM, RXRa partner concentration 90 nM)	4.44
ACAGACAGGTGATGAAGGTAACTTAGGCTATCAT	PPARa:RXRa (NR concentration 270 nM, RXRa partner concentration 90 nM)	0.169
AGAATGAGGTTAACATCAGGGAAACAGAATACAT	PPARa:RXRa (NR concentration 270 nM, RXRa partner concentration 90 nM)	4.3
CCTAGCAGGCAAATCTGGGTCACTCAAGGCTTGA	PPARa:RXRa (NR concentration 270 nM, RXRa partner concentration 90 nM)	3.07
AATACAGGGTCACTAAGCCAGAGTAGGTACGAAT	PPARa:RXRa (NR concentration 270 nM, RXRa partner concentration 90 nM)	5.51
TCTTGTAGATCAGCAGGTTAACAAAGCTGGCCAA	PPARa:RXRa (NR concentration 270 nM, RXRa partner concentration 90 nM)	1.21
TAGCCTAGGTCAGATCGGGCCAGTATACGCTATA	PPARa:RXRa (NR concentration 270 nM, RXRa partner concentration 90 nM)	1.7
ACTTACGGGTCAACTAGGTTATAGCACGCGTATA	PPARa:RXRa (NR concentration 270 nM, RXRa partner concentration 90 nM)	5.8
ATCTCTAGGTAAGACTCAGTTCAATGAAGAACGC	PPARa:RXRa (NR concentration 270 nM, RXRa partner concentration 90 nM)	0.681
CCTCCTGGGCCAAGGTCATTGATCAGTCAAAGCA	PPARa:RXRa (NR concentration 270 nM, RXRa partner concentration 90 nM)	3.57
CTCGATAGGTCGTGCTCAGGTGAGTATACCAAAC	PPARa:RXRa (NR concentration 270 nM, RXRa partner concentration 90 nM)	1.82
